Every entry's value here was drawn from patent US20250215100A1.

# system-under-test: human CD40 on cells (human, UniProt P25942 21-277)
# Sequence (P25942 21-277): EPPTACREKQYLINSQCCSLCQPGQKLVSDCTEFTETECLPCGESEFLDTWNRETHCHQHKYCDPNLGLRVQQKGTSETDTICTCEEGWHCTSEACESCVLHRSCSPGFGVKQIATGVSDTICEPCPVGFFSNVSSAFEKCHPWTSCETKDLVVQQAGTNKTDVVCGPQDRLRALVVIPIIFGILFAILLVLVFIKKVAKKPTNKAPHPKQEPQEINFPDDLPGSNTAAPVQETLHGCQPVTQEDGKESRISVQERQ
# assay-method-text: cell-based or functional assay
We begin with a simple list: items and their reported EC50 (nM), crosslinked, HEK293-hCD40-NFkB reporter.
# output: bare number, implied unit nM

Consider the reported EC50 (nM), crosslinked, HEK293-hCD40-NFkB reporter for these binders:
binder="PR006495 (antibody, human IgG1, kappa, V domains shown, PR003379 variant L:N92A; human IgG1 L234A, L235A, G237A) VH: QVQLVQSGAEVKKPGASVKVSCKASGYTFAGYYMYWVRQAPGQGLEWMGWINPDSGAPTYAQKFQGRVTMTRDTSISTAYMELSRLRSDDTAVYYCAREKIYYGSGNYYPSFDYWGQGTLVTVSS VL: DIQLTQSPSFLSASVGDRVTITCRASQGISSYLAWYQQKPGKAPKLLIYAASTLQSGVPSRFSGSGSGTEFTLTISSLQPEDFATYYCQQLASYPWTFGQGTKVEIKR" observed_value=0.109
binder="PR006496 (antibody, human IgG1, kappa, V domains shown, PR003379 variant L:N92F; human IgG1 L234A, L235A, G237A) VH: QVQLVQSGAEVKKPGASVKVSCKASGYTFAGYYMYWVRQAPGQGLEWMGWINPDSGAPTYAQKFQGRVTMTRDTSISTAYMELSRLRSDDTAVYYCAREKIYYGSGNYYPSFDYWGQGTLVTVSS VL: DIQLTQSPSFLSASVGDRVTITCRASQGISSYLAWYQQKPGKAPKLLIYAASTLQSGVPSRFSGSGSGTEFTLTISSLQPEDFATYYCQQLFSYPWTFGQGTKVEIKR" observed_value=0.217
binder="PR006515 (antibody, human IgG1, kappa, V domains shown, PR003379 variant L:S93M; human IgG1 L234A, L235A, G237A) VH: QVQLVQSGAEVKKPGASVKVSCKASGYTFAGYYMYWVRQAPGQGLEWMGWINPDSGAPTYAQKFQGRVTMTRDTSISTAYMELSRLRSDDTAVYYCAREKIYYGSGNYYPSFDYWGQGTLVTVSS VL: DIQLTQSPSFLSASVGDRVTITCRASQGISSYLAWYQQKPGKAPKLLIYAASTLQSGVPSRFSGSGSGTEFTLTISSLQPEDFATYYCQQLNMYPWTFGQGTKVEIKR" observed_value=0.0669
binder="PR006510 (antibody, human IgG1, kappa, V domains shown, PR003379 variant L:S93R; human IgG1 L234A, L235A, G237A) VH: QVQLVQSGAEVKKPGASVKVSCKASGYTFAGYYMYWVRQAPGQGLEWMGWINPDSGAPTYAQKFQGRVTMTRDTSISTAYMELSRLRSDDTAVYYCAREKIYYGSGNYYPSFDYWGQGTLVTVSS VL: DIQLTQSPSFLSASVGDRVTITCRASQGISSYLAWYQQKPGKAPKLLIYAASTLQSGVPSRFSGSGSGTEFTLTISSLQPEDFATYYCQQLNRYPWTFGQGTKVEIKR" observed_value=0.0423

Requested field: EC50 (nM), crosslinked, HEK293-hCD40-NFkB reporter. Item: PR006498 (antibody, human IgG1, kappa, V domains shown, PR003379 variant L:N92I; human IgG1 L234A, L235A, G237A) VH: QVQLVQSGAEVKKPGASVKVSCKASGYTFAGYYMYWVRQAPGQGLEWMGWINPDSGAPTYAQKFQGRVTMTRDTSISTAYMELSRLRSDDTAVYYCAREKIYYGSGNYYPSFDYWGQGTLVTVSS VL: DIQLTQSPSFLSASVGDRVTITCRASQGISSYLAWYQQKPGKAPKLLIYAASTLQSGVPSRFSGSGSGTEFTLTISSLQPEDFATYYCQQLISYPWTFGQGTKVEIKR
0.196
